biological target: E. coli RNA polymerase σ^70 holoenzyme (Escherichia coli, UniProt P0A8T7+P0A8V2); test: Fluorescence-detected RNA polymerase assay, E. coli RNA polymerase; settings: read-out: IC50 E. coli RNAP
Sequence (P0A8T7 whole entry): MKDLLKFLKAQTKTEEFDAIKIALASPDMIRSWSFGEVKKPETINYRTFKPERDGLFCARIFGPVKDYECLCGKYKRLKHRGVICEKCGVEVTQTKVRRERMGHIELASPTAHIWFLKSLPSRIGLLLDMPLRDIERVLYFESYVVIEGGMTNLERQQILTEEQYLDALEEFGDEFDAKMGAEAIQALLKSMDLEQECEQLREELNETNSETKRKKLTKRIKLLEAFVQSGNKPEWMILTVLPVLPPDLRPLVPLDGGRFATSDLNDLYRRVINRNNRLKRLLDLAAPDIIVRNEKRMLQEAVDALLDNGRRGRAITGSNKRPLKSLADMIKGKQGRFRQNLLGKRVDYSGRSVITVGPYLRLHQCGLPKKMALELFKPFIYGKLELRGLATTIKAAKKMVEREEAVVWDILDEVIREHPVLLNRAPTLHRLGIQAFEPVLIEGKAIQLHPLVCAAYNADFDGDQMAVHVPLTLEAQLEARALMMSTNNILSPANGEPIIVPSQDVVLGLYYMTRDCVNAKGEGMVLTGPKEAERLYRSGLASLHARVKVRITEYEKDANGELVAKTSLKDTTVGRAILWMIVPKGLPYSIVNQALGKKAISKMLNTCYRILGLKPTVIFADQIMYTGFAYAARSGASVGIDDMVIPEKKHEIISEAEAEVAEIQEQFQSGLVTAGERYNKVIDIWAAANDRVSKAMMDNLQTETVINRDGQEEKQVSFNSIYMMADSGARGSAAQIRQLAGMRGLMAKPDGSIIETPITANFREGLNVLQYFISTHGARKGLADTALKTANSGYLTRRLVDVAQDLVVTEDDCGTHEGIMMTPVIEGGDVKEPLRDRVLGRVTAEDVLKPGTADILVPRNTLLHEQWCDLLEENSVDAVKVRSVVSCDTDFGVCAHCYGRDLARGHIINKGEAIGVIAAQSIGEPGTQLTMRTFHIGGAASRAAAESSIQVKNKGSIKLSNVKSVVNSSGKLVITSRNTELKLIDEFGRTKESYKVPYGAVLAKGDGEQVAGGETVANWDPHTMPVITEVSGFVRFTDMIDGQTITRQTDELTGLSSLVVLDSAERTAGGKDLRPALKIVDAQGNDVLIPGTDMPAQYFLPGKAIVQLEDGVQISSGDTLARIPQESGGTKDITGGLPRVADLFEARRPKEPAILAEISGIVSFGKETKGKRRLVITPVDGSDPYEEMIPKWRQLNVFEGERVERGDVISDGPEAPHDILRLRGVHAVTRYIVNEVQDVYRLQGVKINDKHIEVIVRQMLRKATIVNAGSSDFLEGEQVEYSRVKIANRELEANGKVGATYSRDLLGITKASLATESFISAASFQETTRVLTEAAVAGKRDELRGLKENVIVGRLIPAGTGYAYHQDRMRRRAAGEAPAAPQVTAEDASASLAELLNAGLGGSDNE
Sequence (P0A800 whole entry, further chain): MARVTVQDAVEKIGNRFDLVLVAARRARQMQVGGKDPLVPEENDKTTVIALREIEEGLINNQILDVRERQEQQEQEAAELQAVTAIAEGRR
Sequence (P0A8V2 whole entry): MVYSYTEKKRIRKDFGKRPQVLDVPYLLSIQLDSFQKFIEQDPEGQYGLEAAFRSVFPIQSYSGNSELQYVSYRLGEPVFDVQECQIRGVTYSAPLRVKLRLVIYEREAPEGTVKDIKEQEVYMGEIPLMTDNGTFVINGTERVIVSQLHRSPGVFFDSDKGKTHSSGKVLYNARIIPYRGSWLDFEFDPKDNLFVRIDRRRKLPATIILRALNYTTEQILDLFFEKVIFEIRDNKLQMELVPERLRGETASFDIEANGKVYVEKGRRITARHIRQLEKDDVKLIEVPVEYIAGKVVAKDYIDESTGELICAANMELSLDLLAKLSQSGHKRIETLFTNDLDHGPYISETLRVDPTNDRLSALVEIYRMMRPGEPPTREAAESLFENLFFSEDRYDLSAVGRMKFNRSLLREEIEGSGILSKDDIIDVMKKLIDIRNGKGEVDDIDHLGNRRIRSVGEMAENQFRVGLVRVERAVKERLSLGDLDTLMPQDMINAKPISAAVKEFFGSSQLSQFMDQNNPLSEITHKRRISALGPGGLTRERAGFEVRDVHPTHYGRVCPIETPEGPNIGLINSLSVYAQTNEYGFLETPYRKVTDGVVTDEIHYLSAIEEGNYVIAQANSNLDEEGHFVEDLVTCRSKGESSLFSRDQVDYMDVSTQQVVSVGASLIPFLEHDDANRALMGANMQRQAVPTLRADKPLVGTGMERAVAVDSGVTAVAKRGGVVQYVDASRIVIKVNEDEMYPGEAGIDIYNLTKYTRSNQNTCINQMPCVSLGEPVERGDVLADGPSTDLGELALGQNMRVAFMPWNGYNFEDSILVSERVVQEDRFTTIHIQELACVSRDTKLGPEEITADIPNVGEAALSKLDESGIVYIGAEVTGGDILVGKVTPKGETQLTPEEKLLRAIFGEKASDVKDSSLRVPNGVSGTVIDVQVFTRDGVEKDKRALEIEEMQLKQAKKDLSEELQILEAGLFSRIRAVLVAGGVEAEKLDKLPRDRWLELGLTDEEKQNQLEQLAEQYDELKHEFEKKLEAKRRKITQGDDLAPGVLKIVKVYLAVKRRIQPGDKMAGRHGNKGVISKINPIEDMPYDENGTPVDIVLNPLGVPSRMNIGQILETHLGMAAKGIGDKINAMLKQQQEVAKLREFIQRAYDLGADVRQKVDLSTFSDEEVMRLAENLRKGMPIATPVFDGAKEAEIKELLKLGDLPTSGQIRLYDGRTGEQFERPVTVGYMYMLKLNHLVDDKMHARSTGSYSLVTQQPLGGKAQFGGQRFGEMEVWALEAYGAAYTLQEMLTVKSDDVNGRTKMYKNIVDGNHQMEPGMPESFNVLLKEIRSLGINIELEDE
Sequence (P00579 whole entry, further chain): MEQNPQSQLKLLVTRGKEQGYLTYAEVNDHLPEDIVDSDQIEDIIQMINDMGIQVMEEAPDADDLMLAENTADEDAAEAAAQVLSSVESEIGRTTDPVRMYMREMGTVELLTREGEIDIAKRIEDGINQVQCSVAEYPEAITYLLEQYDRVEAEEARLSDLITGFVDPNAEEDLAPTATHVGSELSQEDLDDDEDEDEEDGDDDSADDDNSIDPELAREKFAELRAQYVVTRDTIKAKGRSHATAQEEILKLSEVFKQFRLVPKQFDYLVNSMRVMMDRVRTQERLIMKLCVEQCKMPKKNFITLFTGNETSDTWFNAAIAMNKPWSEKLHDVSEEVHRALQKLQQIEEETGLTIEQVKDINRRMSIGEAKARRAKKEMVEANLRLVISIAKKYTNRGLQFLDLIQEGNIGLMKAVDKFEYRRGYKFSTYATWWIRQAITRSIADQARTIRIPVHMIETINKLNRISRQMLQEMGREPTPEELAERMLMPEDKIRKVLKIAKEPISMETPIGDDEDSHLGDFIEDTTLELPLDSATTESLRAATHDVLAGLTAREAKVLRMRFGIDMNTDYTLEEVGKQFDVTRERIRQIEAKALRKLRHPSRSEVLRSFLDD
Sequence (P0A7Z4 whole entry, further chain): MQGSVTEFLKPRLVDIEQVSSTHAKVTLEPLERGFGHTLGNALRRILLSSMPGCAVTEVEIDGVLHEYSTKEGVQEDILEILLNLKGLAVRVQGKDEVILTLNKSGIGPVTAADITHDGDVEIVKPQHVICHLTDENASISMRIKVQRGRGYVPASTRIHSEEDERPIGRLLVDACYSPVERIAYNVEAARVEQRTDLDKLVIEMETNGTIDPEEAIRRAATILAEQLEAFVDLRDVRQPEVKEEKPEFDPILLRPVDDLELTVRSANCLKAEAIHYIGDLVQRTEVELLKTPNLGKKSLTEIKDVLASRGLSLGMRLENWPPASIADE
pIC50: −log10 of the molar value.
measurement kind: pIC50

[
  {
    "compound": "CCCCCCc1csc(C=C(C)C(=O)c2c(O)cc(C(C)CC/C=C/NC(=O)OC)oc2=O)c1C (mixture of isomers)",
    "assay target": "E. coli RNA polymerase σ^70 holoenzyme (Escherichia coli, UniProt P0A8T7+P0A8V2)",
    "test value": 8.00
  },
  {
    "compound": "COC(=O)N/C=C/CCC(C)c1cc(O)c(C(=O)C(C)=Cc2ccc(CCC3CC3)s2)c(=O)o1 (mixture of isomers)",
    "assay target": "E. coli RNA polymerase σ^70 holoenzyme (Escherichia coli, UniProt P0A8T7+P0A8V2)",
    "test value": 8.30
  },
  {
    "compound": "COC(=O)N/C=C/CCCc1cc(O)c(C(=O)C(C)=Cc2ccc(CCC(C)C)s2)c(=O)o1 (mixture of isomers)",
    "assay target": "E. coli RNA polymerase σ^70 holoenzyme (Escherichia coli, UniProt P0A8T7+P0A8V2)",
    "test value": 7.70
  },
  {
    "compound": "COC(=O)N/C=C/CCC(C)c1cc(O)c(C(=O)C(C)=Cc2cccc(OCCC(C)(C)C)c2)c(=O)o1 (mixture of isomers)",
    "assay target": "E. coli RNA polymerase σ^70 holoenzyme (Escherichia coli, UniProt P0A8T7+P0A8V2)",
    "test value": 8.00
  },
  {
    "compound": "COC(=O)N/C=C/CCC(C)c1cc(O)c(C(=O)C(C)=Cc2ccc(CCCC3CCCCC3)s2)c(=O)o1 (mixture of isomers)",
    "assay target": "E. coli RNA polymerase σ^70 holoenzyme (Escherichia coli, UniProt P0A8T7+P0A8V2)",
    "test value": 8.22
  },
  {
    "compound": "COC(=O)N/C=C/CCC(C)c1cc(O)c(C(=O)C(C)=Cc2sc(CCC(C)C)cc2C)c(=O)o1 (mixture of isomers)",
    "assay target": "E. coli RNA polymerase σ^70 holoenzyme (Escherichia coli, UniProt P0A8T7+P0A8V2)",
    "test value": 8.52
  }
]

Values from patent US9592221B2
